Quick reference: kinase still bound, per cent of control of the listed items.
biological target: NTRK3 (human); assay: KINOMEscan competition binding; conditions: compound 10.0 µM

compoundstring=Cc1cn(-c2cc(C(=O)Nc3ccc(C)c(NC(=O)c4ccno4)c3)cc(C(F)(F)F)c2)cn1 targetentity="NTRK3 (human)" observedmeasurement=100%
compoundstring=CCCS(=O)(=O)Nc1ccc(F)c(C(=O)c2c[nH]c3ncc(Cl)cc23)c1F targetentity="NTRK3 (human)" observedmeasurement=77%

Prompt: Given CCN(CCO)CCCOc1ccc2c(Nc3cc(CC(=O)Nc4cccc(F)c4)[nH]n3)ncnc2c1 , state its recorded kinase still bound, per cent of control.
Completion: 56%

Prompt: Given CCOc1cc(N2CCC(O)CC2)ccc1Nc1ncc2c(n1)N(C)c1ccccc1C(=O)N2C , state its recorded kinase still bound, per cent of control.
Completion: 100%

Prompt: Given N#C/C(=C1/Nc2ccccc2S1)c1ccnc(NCCc2cccnc2)n1 , state its recorded kinase still bound, per cent of control.
Completion: 69%
